- TARGET DESC: HCV-NS5b (Hepatitis C virus genotype 1b, UniProt Q9WMX2)
- Construct: (His)6 (C); made in house; host or cells: XL-1 cells (E. coli), IPTG-inducible plasmid, nickel-NTA purification
- MEASUREMENT DESCRIPTION: HCV-NS5b enzyme assay (incorporation of radiolabeled UTP)
- Assay type: biochemical
- SETUP CONDITIONS: enzyme inhibition at compound concentration of 33 uM
PROPERTY: inhibition at 33 µM (%)
Respond with the bare value in %.

QUERY: Request the reported inhibition at 33 µM associated with O=C(O)CCNC(=O)c1ccc2c(c1)nc(-c1ccc3nc(-c4ccccc4)cnc3c1)n2C1CCCCC1
RESULT: 49.1

QUERY: Request the reported inhibition at 33 µM associated with O=C(O)c1ccc2c(c1)nc(-c1ccc3nc(-c4c(O)ccc5ccccc45)ccc3c1)n2C1CCCCC1
RESULT: 101

QUERY: Request the reported inhibition at 33 µM associated with O=C(O)c1ccc2c(c1)nc(-c1ccc3nc(-c4ccc[nH]4)ccc3c1)n2C1CCCCC1
RESULT: 96.5

QUERY: Request the reported inhibition at 33 µM associated with O=C(O)c1ccc2c(c1)nc(-c1ccc3nc(-c4ccc5c(c4)OCO5)ccc3c1)n2C1CCCCC1
RESULT: 98.4

QUERY: Request the reported inhibition at 33 µM associated with NC(=O)[C@H](Cc1ccccc1)NC(=O)c1ccc2cc(-c3nc4cc(C(=O)O)ccc4n3C3CCCCC3)ccc2n1
RESULT: 81.1

QUERY: Request the reported inhibition at 33 µM associated with O=C(O)c1ccc2c(c1)nc(-c1ccc3nc(-c4ccccc4-c4ccccc4)ccc3c1)n2C1CCCCC1
RESULT: 100

QUERY: Request the reported inhibition at 33 µM associated with O=C(O)c1ccc2c(c1)nc(-c1ccc3nc(C(=O)N(c4ccc(Cl)cc4)C4CCCCC4)ccc3c1)n2C1CCCCC1
RESULT: 87.5

QUERY: Request the reported inhibition at 33 µM associated with O=C(O)c1ccc2c(c1)nc(-c1ccc3nc(-c4cc(C(=O)N5CCCC5)ccc4-c4ccc([N+](=O)[O-])cc4)ccc3c1)n2C1CCCCC1
RESULT: 102

QUERY: Request the reported inhibition at 33 µM associated with Cc1nc(N)sc1-c1ccc2cc(-c3nc4cc(C(=O)O)ccc4n3C3CCCCC3)ccc2n1
RESULT: 94.1

QUERY: Request the reported inhibition at 33 µM associated with CSCC[C@H](NC(=O)c1ccc2c(c1)nc(-c1ccc3nc(-c4ccccc4)cnc3c1)n2C1CCCCC1)C(=O)O
RESULT: 81.9

QUERY: Request the reported inhibition at 33 µM associated with O=C(O)c1ccc2c(c1)nc(-c1ccc3nc(-c4cccc(OCCCN5CCCC5)c4)ccc3c1)n2C1CCCCC1
RESULT: 93.4

QUERY: Request the reported inhibition at 33 µM associated with COc1ccc(-c2ccc(C(=O)O)cc2)c(-c2ccc3cc(-c4nc5cc(C(=O)O)ccc5n4C4CCCCC4)ccc3n2)c1
RESULT: 100

QUERY: Request the reported inhibition at 33 µM associated with NNc1cc(-c2ccccc2)nc2ccc(-c3nc4cc(C(=O)O)ccc4n3C3CCCCC3)cc12
RESULT: 92.9

QUERY: Request the reported inhibition at 33 µM associated with C[C@H](NC(=O)c1ccc2c(c1)nc(-c1ccc3nc(-c4ccccc4)cnc3c1)n2C1CCCCC1)C(=O)O
RESULT: 83.2

Reference source for all entries: patent US7511145B2
